Where these numbers come from: PubChem BioAssay

test: P. aeruginosa biofilm formation inhibitors, primary screen, PAO1 strain, BacTiter-Glo luminescence, LB-PBS (AID 1144); details: 12 h, higher = more signal
Use -0.3 as the dividing line for z-score, with the line itself on the met side and lower values as not met.

# MOLECULE, CLASS_ASSIGNMENT
rows = [
    ("C=CCNC(=O)[C@H]1[C@@H]2C(=O)O[C@@H](c3ccccc3)[C@@H](c3ccccc3)N2[C@@H](c2ccc(O)cc2)[C@]12C(=O)Nc1ccc(C#CCC(C(=O)OC)C(=O)OC)cc12", "met"),
    ("C=C(C(=O)CC[C@H](OC(=O)c1ccccc1-c1ccccc1C(=O)O)c1ccc(OCCO)cc1)C(C)C", "not met"),
    ("O=C1c2ccccc2[C@@]2(Cc3ccccc3N(CC(F)(F)F)C2=O)[C@H](c2ccc(CO)cc2)N1Cc1ccccc1", "not met"),
]

IN: Could you please find out whether "C=CCN1C(=O)[C@]2(O[C@H](CCO)[C@@H]([Si](C)(C)c3ccc(OC)cc3)[C@@H]2C)c2cc(N3C(=O)c4ccccc4Oc4ccccc43)ccc21" has z-score that meets -0.3 or exceeds it?
OUT: not met

IN: Reported z-score reaches at least -0.3 for COC(=O)C1=CC(CCCO)=CC(c2ccc(CN3CCCC3)cc2)N(C)C=C1C(=O)OC (stereo not given) ?
OUT: met

---

target: Epidermal growth factor receptor (Homo sapiens) (UniProt P00533); assay: EGFR binders on small-molecule microarrays, primary screen, biochemical, small-molecule microarray, 635 nm fluorescence (AID 1104); details: EGFR binding, higher = more signal;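 further: score merges 667 nm emission intensity with spot signal to noise over triplicate slides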
Sequence (P00533 whole entry, looked up): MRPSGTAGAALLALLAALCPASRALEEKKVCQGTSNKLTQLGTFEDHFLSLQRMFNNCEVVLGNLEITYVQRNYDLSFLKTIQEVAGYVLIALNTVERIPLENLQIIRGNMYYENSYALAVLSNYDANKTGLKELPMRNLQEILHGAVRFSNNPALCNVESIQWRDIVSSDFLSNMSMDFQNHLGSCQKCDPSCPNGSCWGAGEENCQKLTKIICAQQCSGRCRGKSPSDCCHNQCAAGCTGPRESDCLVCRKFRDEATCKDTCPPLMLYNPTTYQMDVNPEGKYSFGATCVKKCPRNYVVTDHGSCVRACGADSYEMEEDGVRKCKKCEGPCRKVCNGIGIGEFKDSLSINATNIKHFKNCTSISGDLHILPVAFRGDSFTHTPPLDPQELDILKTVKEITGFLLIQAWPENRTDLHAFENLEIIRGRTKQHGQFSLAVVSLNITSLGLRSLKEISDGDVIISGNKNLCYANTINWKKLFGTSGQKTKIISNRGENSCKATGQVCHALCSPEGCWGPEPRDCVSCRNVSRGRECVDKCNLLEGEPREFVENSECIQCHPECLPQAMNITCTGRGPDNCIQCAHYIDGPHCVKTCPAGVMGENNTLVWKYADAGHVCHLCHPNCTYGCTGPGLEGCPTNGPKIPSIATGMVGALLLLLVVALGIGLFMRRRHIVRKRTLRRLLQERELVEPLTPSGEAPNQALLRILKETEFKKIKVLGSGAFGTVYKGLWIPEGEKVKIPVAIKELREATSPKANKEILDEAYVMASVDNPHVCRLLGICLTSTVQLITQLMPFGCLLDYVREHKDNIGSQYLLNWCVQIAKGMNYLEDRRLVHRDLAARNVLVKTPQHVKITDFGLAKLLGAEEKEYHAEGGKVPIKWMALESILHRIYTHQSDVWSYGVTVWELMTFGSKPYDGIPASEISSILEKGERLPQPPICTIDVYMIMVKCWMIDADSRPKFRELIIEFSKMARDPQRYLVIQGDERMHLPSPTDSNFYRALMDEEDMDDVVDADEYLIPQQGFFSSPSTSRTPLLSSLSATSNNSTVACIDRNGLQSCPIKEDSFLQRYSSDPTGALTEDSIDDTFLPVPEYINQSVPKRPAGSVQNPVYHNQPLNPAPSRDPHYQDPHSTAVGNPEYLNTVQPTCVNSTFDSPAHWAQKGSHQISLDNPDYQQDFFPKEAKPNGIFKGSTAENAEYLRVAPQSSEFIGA
MEASUREMENT_NAME: composite z-score
In your answer, state the number alone without any accompanying words.

# COMPOUND, MEASUREMENT_NAME, NUMERIC_RESULT
records = [
    ("O=C1O[C@@H](c2ccccc2)[C@@H](c2ccccc2)N2[C@@H](c3ccc(OCCO)cc3)[C@]3(C(=O)Nc4ccc(C#CC5=CCCCC5)cc43)[C@@H](C(=O)Nc3nc4ccccc4s3)[C@H]12", "composite z-score", 0.554),
    ("COC(=O)C(CC#Cc1ccc2c(c1)[C@]1(C(=O)N2)[C@H](C(=O)N2CCN(c3ncccn3)CC2)[C@H]2C(=O)O[C@H](c3ccccc3)[C@H](c3ccccc3)N2[C@@H]1c1ccc(O)cc1)C(=O)OC", "composite z-score", 1.18),
    ("CC(CO)N1C(=O)[C@@H]2[C@H]3C(=O)OCC=C[C@H]3OC23C=CCN(c2ccc4ccccc4c2)C(=O)[C@@H]13 (some centres undefined)", "composite z-score", -1.64),
    ("O=C1OCCC/C=C\\[C@H]2OC34C=CCN(Cc5ccccc5)C(=O)[C@H]3N(CCO)C(=O)[C@@H]4C12 (some centres undefined)", "composite z-score", -0.71),
    ("COC(=O)C1(CC(C)C)C=C2C(=C(C)C(=O)C2C)CN1 (centres undefined)", "composite z-score", -0.155),
    ("COC(=O)[C@@]1(Cc2ccc(F)cc2)[C@H]2c3cc(C(=O)N(C)C)n(Cc4ccc(C(F)(F)F)nc4)c3C[C@H]2CN1C(=O)c1ccccc1", "composite z-score", 0.389),
    ("COc1ccc(NN2C(C(O)c3ccccc3)C=CC3C(=O)N(C4CCCCC4)C(=O)C32)cc1 (centres undefined)", "composite z-score", 0.122),
    ("CC(C)C[C@@H]1NC(=O)[C@H]2C[C@@H](C(=O)O)[C@@H](c3cccc(OCCO)c3)N2C1=O", "composite z-score", 0.193),
]

IN: Reported composite z-score, compound "COC(=O)[C@@]1(Cc2ccc(F)cc2)[C@H]2c3cc(C(=O)N(C)C)n(CCF)c3C[C@H]2CN1C(=O)c1ccccc1" : ____
OUT: -0.0604
